molecular target: Cbl-B (Homo sapiens); construct: MSD-Based Assay for Degradation of Cbl-B in THP-1 Cells; endogenous in cells; host or cells: THP-1 (title) / Jurkat (protocol text); test: MSD-based assay for degradation of Cbl-B in THP-1 cells; type: cell-based; conditions: THP-1
Sequence (Q13191 whole entry): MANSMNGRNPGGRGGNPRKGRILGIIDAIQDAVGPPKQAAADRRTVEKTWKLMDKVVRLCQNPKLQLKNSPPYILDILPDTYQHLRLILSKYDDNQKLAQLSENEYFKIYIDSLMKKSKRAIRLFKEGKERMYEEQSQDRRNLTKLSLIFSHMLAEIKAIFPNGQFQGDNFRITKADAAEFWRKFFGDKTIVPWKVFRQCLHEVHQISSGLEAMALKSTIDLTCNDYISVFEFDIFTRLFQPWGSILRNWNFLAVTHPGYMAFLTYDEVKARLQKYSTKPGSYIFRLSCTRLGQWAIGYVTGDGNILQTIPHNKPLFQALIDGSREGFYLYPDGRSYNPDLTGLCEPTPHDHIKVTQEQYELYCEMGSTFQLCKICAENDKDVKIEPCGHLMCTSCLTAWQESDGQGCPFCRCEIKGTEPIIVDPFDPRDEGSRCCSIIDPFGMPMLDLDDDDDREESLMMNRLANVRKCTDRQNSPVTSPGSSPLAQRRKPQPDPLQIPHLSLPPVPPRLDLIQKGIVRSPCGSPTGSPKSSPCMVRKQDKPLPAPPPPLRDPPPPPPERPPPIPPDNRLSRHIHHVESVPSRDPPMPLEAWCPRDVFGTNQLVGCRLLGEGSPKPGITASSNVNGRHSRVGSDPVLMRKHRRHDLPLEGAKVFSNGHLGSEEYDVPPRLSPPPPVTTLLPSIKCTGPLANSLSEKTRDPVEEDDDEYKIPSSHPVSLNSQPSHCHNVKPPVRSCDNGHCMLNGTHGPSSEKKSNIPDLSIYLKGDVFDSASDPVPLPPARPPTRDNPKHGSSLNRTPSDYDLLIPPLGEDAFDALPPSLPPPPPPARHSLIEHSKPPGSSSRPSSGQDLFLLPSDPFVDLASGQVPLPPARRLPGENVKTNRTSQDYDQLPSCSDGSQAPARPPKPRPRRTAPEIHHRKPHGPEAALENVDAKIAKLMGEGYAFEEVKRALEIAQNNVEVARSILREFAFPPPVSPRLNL
Experimental readout: Dmax

Study these solved cases before continuing.
[
  {
    "Compound": "Cn1cnnc1CC1(c2cccc(-n3cc4c(C(F)(F)F)cc(CN5CCC(CC(=O)N6CCC(CC7CCN(c8ccc9c(c8)CN([C@@H]8CCC(=O)NC8=O)C9=O)CC7)CC6)CC5)cn4c3=O)c2)COC1 (single isomer, unassigned)",
    "Test system": "Cbl-B (Homo sapiens)",
    "Dmax": "50 to 70%"
  },
  {
    "Compound": "CN(C(=O)c1ccc(CN2CCN(c3ccc4c(c3)CN([C@@H]3CCC(=O)NC3=O)C4=O)CC2)cc1)C1CCN(Cc2cc(C(F)(F)F)c3cn(-c4cccc([C@H](c5nncn5C)C5CCC5)c4)c(=O)n3c2)CC1",
    "Test system": "Cbl-B (Homo sapiens)",
    "Dmax": "< 30%"
  },
  {
    "Compound": "Cn1cnnc1CC1(c2cccc(-n3cc4c(C(F)(F)F)cc(CN5CCC(N6CCN(c7ccc8c(c7)CN(C7CCC(=O)NC7=O)C8=O)CC6)CC5)cn4c3=O)c2)COC1 (stereo not drawn)",
    "Test system": "Cbl-B (Homo sapiens)",
    "Dmax": "< 30%"
  },
  {
    "Compound": "Cn1cnnc1CC1(c2cccc(-n3cc4c(C(F)(F)F)cc(CN5CCC(OCCN6CCC(CN7CCN(c8cc9c(cc8F)C(=O)N(C8CCC(=O)NC8=O)C9=O)CC7)CC6)CC5)cn4c3=O)c2)COC1 (stereo not drawn)",
    "Test system": "Cbl-B (Homo sapiens)",
    "Dmax": "< 30%"
  },
  {
    "Compound": "Cn1cnnc1CC1(c2cccc(-n3cc4c(C(F)(F)F)cc(CN5CCC(C6CCN(C(=O)c7ccc(N8CCN(c9ccc%10c(c9)CN([C@H]9CCC(=O)NC9=O)C%10=O)CC8)cc7)CC6)CC5)cn4c3=O)c2)COC1",
    "Test system": "Cbl-B (Homo sapiens)",
    "Dmax": "> 70%"
  },
  {
    "Compound": "CN(CCOC1CCN(Cc2cc(C(F)(F)F)c3cn(-c4cccc([C@H](c5nncn5C)C5CCC5)c4)c(=O)n3c2)CC1)C(=O)c1ccc(N2CCN(c3ccc4c(c3)CN([C@H]3CCC(=O)NC3=O)C4=O)CC2)cc1",
    "Test system": "Cbl-B (Homo sapiens)",
    "Dmax": "> 70%"
  },
  {
    "Compound": "Cn1cnnc1[C@@H](c1cccc(-n2cc3c(C(F)(F)F)cc(CN4CCC(OC(=O)N5CCC(CN6CCN(c7ccc8c(c7)CN([C@@H]7CCC(=O)NC7=O)C8=O)CC6)CC5)CC4)cn3c2=O)c1)C1CCC1",
    "Test system": "Cbl-B (Homo sapiens)",
    "Dmax": "50 to 70%"
  },
  {
    "Compound": "Cn1cnnc1[C@@H](c1cccc(-n2cc3c(C(F)(F)F)cc(CN4CCC(CC(=O)N5CCC(Cc6ccc(-c7ccc8c(c7)CN([C@@H]7CCC(=O)NC7=O)C8=O)cc6)CC5)CC4)cn3c2=O)c1)C1CCC1",
    "Test system": "Cbl-B (Homo sapiens)",
    "Dmax": "30 to 50%"
  }
]

Lookup: Entry under review: Cn1cnnc1[C@@H](c1cccc(-n2cc3c(C(F)(F)F)cc(CN4CCC(CC(=O)N5CCC(c6ccc(-c7ccc8c(c7)CN([C@@H]7CCC(=O)NC7=O)C8=O)cc6)CC5)CC4)cn3c2=O)c1)C1CCC1 . Reported Dmax?
Found: 30 to 50%
